Tested on: Puccinia triticina
Experiment: Antifungal activity against Puccinia recondita f. sp. tritici infected in wheat seedlings at 40 ppm relative to control
Format: functional
Measured Activity accompanies every entry in the list below.
All answers are understood in %, so give the number only.

Check out these entries, answers already filled in.
compound	Activity [%]
C=CCn1c(-c2c(F)cc(F)cc2F)c(Cl)nc(-n2cccn2)c1=O	99
CCCCn1c(-c2c(F)cc(F)cc2F)c(Cl)nc(-n2cccn2)c1=O	100
CC(Cn1c(-c2c(F)cc(F)cc2F)c(Cl)nc(-n2cccn2)c1=O)C(F)(F)F (stereo not given)	100
CC(C)Cn1c(-c2c(F)cccc2F)c(Cl)nc(-c2cnccn2)c1=O	89
O=c1c(-n2cccn2)nc(Cl)c(-c2c(F)cc(F)cc2F)n1-c1ccccc1Cl	100

Data request: Could you please provide reported Activity for "CC(C)Cn1c(C2CCCC2)c(Cl)nc(-n2cccn2)c1=O" ? Thanks!
Data returned: 91

Data request: Could you please provide reported Activity for "CC(C)Cn1c(-c2c(F)cccc2F)c(Cl)nc(-c2nccn2C)c1=O" ? Thanks!
Data returned: 0

Data request: Could you please provide reported Activity for "CC(C)Cn1c(-c2c(F)cccc2F)cnc(-n2cccn2)c1=O" ? Thanks!
Data returned: 0

Data request: Could you please provide reported Activity for "CC[C@H](C)Cn1c(-c2c(F)cccc2F)c(Cl)nc(-n2cncn2)c1=O" ? Thanks!
Data returned: 98

Data request: Could you please provide reported Activity for "O=c1c(-n2cccn2)nc(Cl)c(-c2c(F)cc(F)cc2F)n1CC(F)(F)C(F)(F)F" ? Thanks!
Data returned: 100
